Molecular target: cruzain (Trypanosoma cruzi, UniProt P25779);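 also: at 5 µM compound concentration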
Sequence (P25779 123-337 limits assumed): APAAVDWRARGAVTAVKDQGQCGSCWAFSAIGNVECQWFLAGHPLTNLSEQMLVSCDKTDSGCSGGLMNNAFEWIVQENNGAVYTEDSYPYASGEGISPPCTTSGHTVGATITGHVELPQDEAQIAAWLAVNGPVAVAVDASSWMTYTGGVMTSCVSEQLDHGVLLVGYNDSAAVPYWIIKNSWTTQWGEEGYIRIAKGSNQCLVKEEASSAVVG
Experiment: biochemical
Conditions: 10’ (pre-incubation time); Pathogen Box screening results
Cruzain Inhibition 10’ listing for selected molecules.

{"molecule": "O=C(Nc1cnc2ccccc2c1)c1cccc(-n2cnnn2)c1 [MMV084864]", "target": "cruzain (Trypanosoma cruzi, UniProt P25779)", "unit-abbreviation": "%", "Cruzain Inhibition 10’": 11}
{"molecule": "COc1cccc(NC(=O)c2c(NC(=O)c3cccnc3)sc3c2CCC3)c1 [MMV228911]", "target": "cruzain (Trypanosoma cruzi, UniProt P25779)", "unit-abbreviation": "%", "Cruzain Inhibition 10’": 4.7}
{"molecule": "COc1cccc(-n2nnnc2S(C)(=O)=O)c1 [MMV272144]", "target": "cruzain (Trypanosoma cruzi, UniProt P25779)", "unit-abbreviation": "%", "Cruzain Inhibition 10’": 11}
{"molecule": "CO[C@@H]1CN(c2ccc(C#CC3(O)CN4CCC3CC4)c(Cc3ccccc3)n2)C[C@H]1O (stereo partly shown) [MMV688415]", "target": "cruzain (Trypanosoma cruzi, UniProt P25779)", "unit-abbreviation": "%", "Cruzain Inhibition 10’": 16}
{"molecule": "CC(C)(C)c1cnc(NC(=O)c2ccccc2O)s1 [MMV495543]", "target": "cruzain (Trypanosoma cruzi, UniProt P25779)", "unit-abbreviation": "%", "Cruzain Inhibition 10’": 3.4}
{"molecule": "CC(=O)OC[C@H]1O[C@@H]([S-])[C@H](OC(C)=O)[C@@H](OC(C)=O)[C@@H]1OC(C)=O.CC[PH+](CC)CC.[Au] [MMV688978]", "target": "cruzain (Trypanosoma cruzi, UniProt P25779)", "unit-abbreviation": "%", "Cruzain Inhibition 10’": -71}
{"molecule": "c1ccc(-c2nc(NC3CCCCC3)cc(C3CC3)n2)nc1 [MMV021013]", "target": "cruzain (Trypanosoma cruzi, UniProt P25779)", "unit-abbreviation": "%", "Cruzain Inhibition 10’": 16}
{"molecule": "COc1cccc(-c2cc3c(Nc4cccnc4)nccc3[nH]2)c1 [MMV392832]", "target": "cruzain (Trypanosoma cruzi, UniProt P25779)", "unit-abbreviation": "%", "Cruzain Inhibition 10’": -3.6}
{"molecule": "CC(C)(C)C(=O)N(CCCCCCN1C[C@H](O)[C@@H](O)[C@H](O)[C@H]1CO)C1CCCCCC1 [MMV688543]", "target": "cruzain (Trypanosoma cruzi, UniProt P25779)", "unit-abbreviation": "%", "Cruzain Inhibition 10’": 7.5}
{"molecule": "Cc1ccc(-c2cc(C(=O)Nc3cccnc3)c3cc(Br)ccc3n2)cc1 [MMV016838]", "target": "cruzain (Trypanosoma cruzi, UniProt P25779)", "unit-abbreviation": "%", "Cruzain Inhibition 10’": 7.6}
{"molecule": "C[C@H](C(N)=O)N1CCCC[C@@H]1c1ccc(OCc2cccc(F)c2)cc1 [MMV676270]", "target": "cruzain (Trypanosoma cruzi, UniProt P25779)", "unit-abbreviation": "%", "Cruzain Inhibition 10’": 9}
{"molecule": "Cc1cc(Cl)ccc1NC(=O)CCc1ccc(S(=O)(=O)NCC(C)C)cc1 [MMV161996]", "target": "cruzain (Trypanosoma cruzi, UniProt P25779)", "unit-abbreviation": "%", "Cruzain Inhibition 10’": 9}
{"molecule": "O=[N+]([O-])c1cn2c(n1)OC[C@@H](OCc1ccc(OC(F)(F)F)cc1)C2 [MMV688755]", "target": "cruzain (Trypanosoma cruzi, UniProt P25779)", "unit-abbreviation": "%", "Cruzain Inhibition 10’": 6.6}
{"molecule": "Nc1nccc2ccc(Oc3ccncc3)cc12 [MMV026313]", "target": "cruzain (Trypanosoma cruzi, UniProt P25779)", "unit-abbreviation": "%", "Cruzain Inhibition 10’": 8}
{"molecule": "CCCCCCCCCCCCCCCCOP(=O)([O-])OCC[N+](C)(C)C [MMV688990]", "target": "cruzain (Trypanosoma cruzi, UniProt P25779)", "unit-abbreviation": "%", "Cruzain Inhibition 10’": 0.6}
{"molecule": "Cc1nn(C(=O)Nc2cccc(C(F)(F)F)c2)c(C)c1Sc1ncccn1 [MMV688552]", "target": "cruzain (Trypanosoma cruzi, UniProt P25779)", "unit-abbreviation": "%", "Cruzain Inhibition 10’": 0.1}
{"molecule": "O=C(Nc1n[nH]c(=S)s1)c1cc(Br)ccc1Cl [MMV676492]", "target": "cruzain (Trypanosoma cruzi, UniProt P25779)", "unit-abbreviation": "%", "Cruzain Inhibition 10’": 27}
{"molecule": "CO/N=C(/C(=O)OC)c1ccccc1CO/N=C(/C)c1cccc(C(F)(F)F)c1 [MMV688754]", "target": "cruzain (Trypanosoma cruzi, UniProt P25779)", "unit-abbreviation": "%", "Cruzain Inhibition 10’": 3.5}
{"molecule": "Cc1cc(=O)[nH]c(-n2nc(C)cc2C)n1 [MMV393995]", "target": "cruzain (Trypanosoma cruzi, UniProt P25779)", "unit-abbreviation": "%", "Cruzain Inhibition 10’": -0.3}
{"molecule": "CCOC(=O)c1noc(N)c1-c1ccccc1 [MMV1236379]", "target": "cruzain (Trypanosoma cruzi, UniProt P25779)", "unit-abbreviation": "%", "Cruzain Inhibition 10’": 7}
{"molecule": "Nc1ccc2ncnc(Nc3ccc(OCc4cccc(F)c4)c(Cl)c3)c2c1 [MMV688273]", "target": "cruzain (Trypanosoma cruzi, UniProt P25779)", "unit-abbreviation": "%", "Cruzain Inhibition 10’": -18}
{"molecule": "NCC(c1cccs1)S(=O)(=O)c1ccccc1 (stereo not shown) [MMV688557]", "target": "cruzain (Trypanosoma cruzi, UniProt P25779)", "unit-abbreviation": "%", "Cruzain Inhibition 10’": 0.1}

Source listed as paper PMC9967275.
